Assay: in vitro
Type: cell-based
Conditions: human
Value Kind: CC50 at 5 days

Input: CC50 at 5 days lookup needed for c1ccc(CNCc2ccc(CN3CCCNCCNCCCNCC3)cc2)nc1 [AMD3465] , thanks.
Output: > 250 µg/mL

====

Target: T1, CXCR-4 (Homo sapiens, UniProt P61073)
T1 construct: endogenous in cells; host or cells: SUP-T1 cells
T1 sequence (P61073 whole entry): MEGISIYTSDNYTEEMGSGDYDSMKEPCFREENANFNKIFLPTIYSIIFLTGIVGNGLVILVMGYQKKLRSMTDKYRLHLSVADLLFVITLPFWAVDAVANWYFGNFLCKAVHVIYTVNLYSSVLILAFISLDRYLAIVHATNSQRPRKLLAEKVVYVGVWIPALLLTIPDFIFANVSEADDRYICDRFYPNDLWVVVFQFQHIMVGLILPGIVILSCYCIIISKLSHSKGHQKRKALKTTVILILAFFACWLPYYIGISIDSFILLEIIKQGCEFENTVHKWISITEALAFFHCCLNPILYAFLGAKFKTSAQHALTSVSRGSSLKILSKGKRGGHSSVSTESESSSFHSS
Test: Inhibition of signal transduction (Ca2+ flux) induced by SDF-1α binding to CXCR-4 on SUP-T1 cells
Type: cell-based
Details: 1 μg/ml, SDF-1α induced, read-out: % Inhibition of Ca2+ flux (conc)
Value Kind: inhibition at 1 µg/mL
Don't forget the unit after the value.

Previously resolved entries follow.
{"columns": ["Smiles Text", "inhibition at 1 µg/mL"],
 "data": [
  ["c1ccc(CNCc2ccc(CN3CCNCCc4cccc(n4)CCNCC3)cc2)nc1", "100%"],
  ["c1ccc(CNCc2ccc(CN3CCNCCc4cccc(c4)CCNCC3)cc2)nc1", "100%"],
  ["c1ccc(CNCc2ccc(CN3CCNCCCCCCCNCC3)cc2)nc1", "100%"],
  ["c1ccc(CNCc2ccc(CN3CCCCCCCNCCNCC3)cc2)nc1", "36%"],
  ["c1ccc(CNCc2ccc(CN3CCNCCNCCc4cccc(c4)CC3)cc2)nc1", "44%"]
]}

Then there is this compound:
Input: For the compound shown here, c1ccc(CNCc2ccc(CN3CCNCCNCCc4cccc(n4)CC3)cc2)nc1 , give the reported inhibition at 1 µg/mL.
Output: 100%

====

Tested on: MT-4 cells
Assay: in vitro
Assay type: cell-based
Value Kind: CC50 (µg/mL)
One number for each entry, in µg/mL.

Sample answers from the record:
{"columns": ["Smiles Text", "Target Or Test System", "CC50 / µg/mL"],
 "data": [
  ["c1nc(CCNCc2ccc(CN3CCCNCCNCCCNCC3)cc2)c[nH]1", "MT-4 cells", 239],
  ["SCCNCc1ccc(CN2CCCNCCNCCCNCC2)cc1", "MT-4 cells", 175],
  ["CN(Cc1ccc(CN2CCCNCCNCCCNCC2)cc1)Cc1ccccn1", "MT-4 cells", 209]
]}

Next item in the queue.
Input: # CC50 lookup, item c1ccc(CNCc2ccc(CN3CCCNCCNCCCNCC3)cc2)cc1
Output: 130

====

Exercise: state measured CC50 for each of the compounds provided.
System: MT-4 cells
Assay: in vitro
Format: cell-based
Give bare numbers, in µg/mL.

// solved cases for CC50 follow
{"columns": ["Smiles Text", "CC50 (µg/mL)"],
 "data": [
  ["Nc1ccccc1CNCc1ccc(CN2CCCNCCNCCCNCC2)cc1", 153],
  ["c1csc(CNCc2ccc(CN3CCCNCCNCCCNCC3)cc2)c1", 158]
]}

Okay, next one:
Input: Any idea what CC50 was measured for Nc1ccc(CNCc2ccc(CN3CCCNCCNCCCNCC3)cc2)cc1 ?
Output: 222

====

Biological target: T1, CXCR-4 (Homo sapiens, UniProt P61073)
T1 construct: endogenous in cells; host or cells: SUP-T1 cells
Assay: Inhibition of signal transduction (Ca2+ flux) induced by SDF-1α binding to CXCR-4 on SUP-T1 cells
Type: cell-based
Details: SDF-1α induced
Value Kind: IC50 (nM)
One number for each entry, in nM.

Input: I would be grateful if you could share the reported IC50 for c1ccc(CNCc2ccc(CN3CCCNCCNCCCNCC3)cc2)nc1 .
Output: 2.44

====

Target: T1, CXCR-4 (Homo sapiens, UniProt P61073)
T1 construct: endogenous in cells; host or cells: SUP-T1 cells
Experiment: Inhibition of mAb 12G5 binding to CXCR-4 in SUP-T1 cells
Could you please mark Y for values of IC50 below 20 nM and N for values at or above it?

Below are worked cases with known answers.
{"columns": ["Smiles Text", "Classification"],
 "data": [
  ["c1ccc(CNCc2ccc(CN3CCCCCCCNCCNCC3)cc2)nc1", "N"],
  ["c1ccc(CNCc2ccc(CN3CCNCCc4cccc(c4)CCNCC3)cc2)nc1", "Y"],
  ["c1ccc(CNCc2ccc(CN3CCCNCCNCCCNCC3)cc2)nc1", "Y"],
  ["c1ccc(CNCc2ccc(CN3CCNCCCCCCCNCC3)cc2)nc1", "N"],
  ["c1ccc(CNCc2ccc(CN3CCNCCc4cccc(n4)CCNCC3)cc2)nc1", "Y"]
]}

Input: Does this compound meet the criterion IC50 < 20 nM? c1ccc(CNCc2ccc(CN3CCNCCNCCc4cccc(c4)CC3)cc2)nc1
Output: N
